Target: T1, Human Clec4E (human, UniProt Q9ULY5 1-219)
T1 construct: also called hClec4E
T1 sequence: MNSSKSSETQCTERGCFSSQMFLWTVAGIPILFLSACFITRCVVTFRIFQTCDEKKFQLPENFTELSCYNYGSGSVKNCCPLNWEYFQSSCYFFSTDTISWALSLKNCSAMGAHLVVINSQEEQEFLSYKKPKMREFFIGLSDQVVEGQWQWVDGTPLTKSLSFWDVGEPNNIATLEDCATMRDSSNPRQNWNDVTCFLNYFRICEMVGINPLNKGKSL
Assay: flow, Jurkat, 100 nM Ab

binder: KM12.2.3 (antibody, human IgG1, V domains shown) VH: EVQLVESGGGLVQPGGSLRLSCAASGFTFSSYAMSWIRQAPGKGLEWVSAISGSGGSIYYADSVKGRFTISRDNSKNTLYLQMNSLRAEDTAVYYCARGYSDSYFYGPYYTFDYWGQGTLVTVSS VL: DIQMTQSPSSLSASVGDRVTITCRASQGISSYLNWYQQKPGKAPKLLIYAASSLQSGVSSRFSGSGSGTDFTLTISSLQPEDFATYYCQQSYNTPLTFGQGTKVEIK
MFI normalized to WT: 1.68
//
binder: KW1.2.1 (antibody, V domains shown) VH: EVQLVESGGGLVQPGGSLRLSCAASGSTFSSYAMSWVRQAPGKGLEWVSTISGSGGSTYYADSVKGRFTISRDNSRNTLYLQMNSLRAEDTAVYYCARGGLIPSGFDYWGQGTLVTVSS VL: DIQMTQSPSSPSASVGDRVTITCRASQSISSYLNWYQQKPGKAPKLLIYAASSLLSGVPSRFSGSGSGTDFTLTISSLQPEDFATYYCQQTYSTPLTFGQGTKVEIK
MFI normalized to WT: 0.99
